- EXPERIMENT: static efficiency test of sulfate scale inhibition
- RECORDED_CONDITIONS: 90° C., one hour after mixing anion and cation brine 1:1 (v/v), Ba2+ in solution, Brine A, SI dosage 1 ppm
VALUE_KIND: inhibition efficiency, Brine A (%)
# unit: % | format: bare number

// worked examples, inhibition efficiency, Brine A included
# MOLECULE, inhibition efficiency, Brine A, %
measured = [
    ("O=P(O)(O)CN(CC(O)COCCCCOCC(O)CN(CP(=O)(O)O)CP(=O)(O)O)CP(=O)(O)O (stereo not shown)", 47),
    ("O=P(O)(O)CN(CCNCC(O)COCC(O)C(OCC(O)CNCCN(CP(=O)(O)O)CP(=O)(O)O)C(O)C(COCC(O)CNCCN(CP(=O)(O)O)CP(=O)(O)O)OCC(O)CNCCN(CP(=O)(O)O)CP(=O)(O)O)CP(=O)(O)O (stereo not shown)", 100),
    ("O=P(O)(O)CN(CCN(CP(=O)(O)O)CP(=O)(O)O)CCN(CP(=O)(O)O)CP(=O)(O)O [DTPMP, reference compound]", 94),
    ("O=P(O)(O)CN(CC(O)COCC(CO)OCC(O)CN(CP(=O)(O)O)CP(=O)(O)O)CP(=O)(O)O (stereo not shown)", 42),
]

# input For the molecule O=P(O)(O)CN(CC(O)COCC(O)C(OCC(O)CN(CP(=O)(O)O)CP(=O)(O)O)C(O)C(COCC(O)CN(CP(=O)(O)O)CP(=O)(O)O)OCC(O)CN(CP(=O)(O)O)CP(=O)(O)O)CP(=O)(O)O (stereo not shown) , give its measured inhibition efficiency, Brine A value.
# output 57

# input For the molecule O=P(O)(O)CN(CCO)CC(O)COCC(O)C(OCC(O)CN(CCO)CP(=O)(O)O)C(O)C(COCC(O)CN(CCO)CP(=O)(O)O)OCC(O)CN(CCO)CP(=O)(O)O (stereo not shown) , give its measured inhibition efficiency, Brine A value.
# output 48

# input For the molecule CN(CC(O)COCC(O)C(OCC(O)CN(C)CP(=O)(O)O)C(O)C(COCC(O)CN(C)CP(=O)(O)O)OCC(O)CN(C)CP(=O)(O)O)CP(=O)(O)O (stereo not shown) , give its measured inhibition efficiency, Brine A value.
# output 23

###

Known inhibition efficiency, Brine D of a selection of compounds
- EXPERIMENT: static efficiency test of sulfate scale inhibition
- RECORDED_CONDITIONS: 90° C., one hour after mixing anion and cation brine 1:1 (v/v), Ba2+ in solution, Brine D, SI dosage 30 ppm
# unit: % | format: bare number

// worked examples, inhibition efficiency, Brine D included
# COMPOUND, UNIT_SYMBOL, inhibition efficiency, Brine D
measured = [
    ("O=P(O)(O)CN(CC(O)COCCCCOCC(O)CN(CP(=O)(O)O)CP(=O)(O)O)CP(=O)(O)O (stereo not shown)", "%", 6),
    ("O=P(O)(O)CN(CC(O)COCC(CO)OCC(O)CN(CP(=O)(O)O)CP(=O)(O)O)CP(=O)(O)O (stereo not shown)", "%", 42),
    ("O=P(O)(O)CN(CCO)CC(O)COCC(O)C(OCC(O)CN(CCO)CP(=O)(O)O)C(O)C(COCC(O)CN(CCO)CP(=O)(O)O)OCC(O)CN(CCO)CP(=O)(O)O (stereo not shown)", "%", 5),
    ("CN(CC(O)COCC(O)C(OCC(O)CN(C)CP(=O)(O)O)C(O)C(COCC(O)CN(C)CP(=O)(O)O)OCC(O)CN(C)CP(=O)(O)O)CP(=O)(O)O (stereo not shown)", "%", 2),
    ("O=P(O)(O)CN(CCNCC(O)COCC(O)C(OCC(O)CNCCN(CP(=O)(O)O)CP(=O)(O)O)C(O)C(COCC(O)CNCCN(CP(=O)(O)O)CP(=O)(O)O)OCC(O)CNCCN(CP(=O)(O)O)CP(=O)(O)O)CP(=O)(O)O (stereo not shown)", "%", 83),
]

# input For the compound O=P(O)(O)CN(CC(O)COCC(O)C(OCC(O)CN(CP(=O)(O)O)CP(=O)(O)O)C(O)C(COCC(O)CN(CP(=O)(O)O)CP(=O)(O)O)OCC(O)CN(CP(=O)(O)O)CP(=O)(O)O)CP(=O)(O)O (stereo not shown) , give its measured inhibition efficiency, Brine D value.
# output 42

# input For the compound O=P(O)(O)CN(CCN(CP(=O)(O)O)CP(=O)(O)O)CCN(CP(=O)(O)O)CP(=O)(O)O [DTPMP, reference compound] , give its measured inhibition efficiency, Brine D value.
# output 24
